Test system: NCI-H226
assay summary: NCI tumour cell line growth inhibition, 48 h
Activity calls are given as the source filed them. Cut-off read from the data, not from the text of the source: active = GI50 up to about 1.1 µM and inactive = higher.
experimental readout: GI50

                                   compound  experimental_readout            obs_value
0        CC(=O)OCCOCNC(=S)N/N=C/c1cc(Br)cs1                  GI50  > 100 µM (inactive)
1  COC(=O)CC1C(C)(C)C(=O)C2CC3=C4CC(=O)OC(c5ccoc5)C4(C)CCC3C1(C)C2=O (stereo not drawn)                  GI50  > 100 µM (inactive)
2      COc1ccc2cc(C(=O)NCCc3ccccc3)ccc2c1OC                  GI50     63 µM (inactive)

---

System: SF-268
assay summary: NCI tumour cell line growth inhibition, 48 h
Activity calls are given as the source filed them. Cut-off read from the data, not from the text of the source: active = GI50 up to about 1.1 µM and inactive = higher.
This section presents molecules with their documented GI50 values.
experimental readout: GI50

>>> df
                                   molecule            obs_value
0  COC(=O)C1=Nc2c(C)nn(-c3ccccc3)c2N=C(c2ccc([N+](=O)[O-])cc2)C1   > 10 µM (inactive)
1      Cc1cc(=O)oc2cc(O)c(CN(C)CC(=O)O)cc12  > 100 µM (inactive)
2  NC(=O)c1nnsc1N/N=C/c1ccc([N+](=O)[O-])cc1  > 100 µM (inactive)
3  COc1ccc(C2S/C(=C\c3cccc([N+](=O)[O-])c3)C(=O)N2NC(=O)Cc2ccccc2)cc1 (stereo not given)  > 100 µM (inactive)
4           O=c1c2ccccc2[nH]c2cc(O)cc(O)c12   93.8 µM (inactive)

---

Test system: NCI-H226
assay summary: NCI tumour cell line growth inhibition, 48 h
Calls of active or inactive are those of the source. Rule as the data show it: active = GI50 up to about 1.1 µM and inactive = higher.
experimental readout: GI50

                                    molecule            obs_value
 0  Cc1ncc([N+](=O)[O-])n1CCNC(=O)Cn1ccnc1[N+](=O)[O-]  > 100 µM (inactive)
 1  CCOC(=O)CCC(NC(=O)Cc1ccc(Nc2nc3ccccc3nc2-c2cccs2)cc1)C(=O)OCC (configuration not stated)  > 100 µM (inactive)
 2  COc1ccc(N2C(=O)C3c4[nH]c5cc(Cl)ccc5c4C4CCC(C(C)(C)C)CC4C3C2=O)cc1 (configuration not stated)  > 100 µM (inactive)
 3  CCCCCCCCCCCCCCCCCCNc1ccn(C2OC(CO)C(O)C2O)c(=O)n1 (configuration not stated)  > 100 µM (inactive)
 4    Cc1ccc(/N=N/NCCCCN/N=N/c2ccc(C)cc2)cc1  > 100 µM (inactive)
 5       NC1=NNC2(C(N)=N1)c1ccccc1-c1ccccc12   > 10 µM (inactive)
 6  CCCCn1c(C)c2c(c1C)C(=O)N(CC(O)CN1CCc3ccccc3C1)C2=O (configuration not stated)   68.7 µM (inactive)
 7       O=[N+]([O-])c1cc2c(c3nonc13)OCCCCO2   14.4 µM (inactive)
 8  O=C1C[C@H]2[C@@H](O1)[C@@H](O)CN1C(=O)c3ccccc3[C@H]21  > 100 µM (inactive)
 9                 CC(C)OC(=O)c1cccnc1/C=N/O  > 100 µM (inactive)
10  CC1C=CC(C)C2(O)C(=O)NC(O)C12 (configuration not stated)  > 100 µM (inactive)
11  O=C(Nn1c(-c2ccccc2)nc2ccccc2c1=O)c1cccc([N+](=O)[O-])c1   52.8 µM (inactive)
12  COC(=O)NC(Cc1ccccc1)NC(=O)OC(C)(C)C (configuration not stated)  > 100 µM (inactive)
13  COc1ccc2nc3ccc(OC)cc3c(S(=O)(=O)Cc3ccc([N+](=O)[O-])cc3)c2c1  > 100 µM (inactive)
14    Nc1nc(N)c(-c2ccccc2)c(C(=O)Nc2nccs2)n1  > 100 µM (inactive)
15  COc1ccc(C(=O)OC2C=COC(C)C2OC(=O)c2ccc(OC)cc2)cc1 (configuration not stated)   38.8 µM (inactive)
16  O=C1N/C(=N/N=C\C(O)C(O)C(O)CO)N/C1=C/c1ccccc1 (configuration not stated)  > 100 µM (inactive)
17     COc1ccc2nc(-c3ccccc3)cc(OCC(=O)O)c2c1  > 100 µM (inactive)
18  CC1(C)C2CCC1(C)C(N/C(Sc1ccccc1)=C(/C(Cl)=C(Cl)Cl)[N+](=O)[O-])C2 (configuration not stated)   16.8 µM (inactive)
19       C/C(Sc1ccccc1)=C1/CCCN(Cc2ccccc2)C1   12.9 µM (inactive)
20      O=c1nc2sc3ccc4ccccc4c3n2nc1-c1ccccc1   59.2 µM (inactive)
21  CC(=O)Nc1ccc(S(=O)(=O)[N-]C2C(=O)c3ccccc3C(=O)C2[n+]2ccccc2)cc1 (configuration not stated)  > 100 µM (inactive)
